experimental-protocol: binders of probe aHhip on microarray, primary screen, stem cell growth factor project, biochemical, small-molecule microarray, fluorescence 635/667 (AID 1087);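 note: score merges spot fluorescence at 667nm with spot signal to noise ratio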
experimental-conditions: higher = more signal
composite z-score of -0.2 or higher: class 1. Under -0.2: class 0.

Answered cases to consult:
COc1ccc([Si](C)(C)[C@H]2[C@H](CCn3cc([C@H](O)c4ccccc4)nn3)O[C@@]3(C(=O)N(C)c4c(Br)cc(C)cc43)[C@@H]2C)cc1	class 1
CN1C(=O)[C@]2(CCS(=O)(=O)c3ccccc3)N=C(c3ccc(OCCCO)cc3)O[C@@H]2c2ccccc21	class 1
C=CCN1C(=O)[C@]2(O[C@H](CCO)[C@@H]([Si](C)(C)c3ccc(OC)cc3)[C@@H]2C)c2ccccc21	class 1
CC1(C)OC[C@@]23C=C(Br)[C@@H](C[C@H]12)[C@@]1(CO1)C3=O	class 1
CC1CC/C=C\[C@H]2OC34C=CCN(CCN5CCOCC5)C(=O)[C@H]3N(CCCCCCO)C(=O)[C@@H]4C2C(=O)O1 (some centres not stated)	class 1
COc1ccccc1CN1C(=O)c2ccccc2[C@@H](C(=O)NCCCN(C)C)[C@@H]1c1ccc(CO)cc1	class 0

Does COc1ccccc1CN1C(=O)c2ccccc2[C@](Cc2ccccc2I)(C(=O)NCCCN(C)C)[C@@H]1c1ccc(CO)cc1 have a reported composite z-score of at least -0.2?
class 0
